Experimental target: α1A adrenoceptor (Rattus norvegicus)
Construct: from tissue; host or cells: rat submaxillary gland membranes
Sequence (P43140 whole entry): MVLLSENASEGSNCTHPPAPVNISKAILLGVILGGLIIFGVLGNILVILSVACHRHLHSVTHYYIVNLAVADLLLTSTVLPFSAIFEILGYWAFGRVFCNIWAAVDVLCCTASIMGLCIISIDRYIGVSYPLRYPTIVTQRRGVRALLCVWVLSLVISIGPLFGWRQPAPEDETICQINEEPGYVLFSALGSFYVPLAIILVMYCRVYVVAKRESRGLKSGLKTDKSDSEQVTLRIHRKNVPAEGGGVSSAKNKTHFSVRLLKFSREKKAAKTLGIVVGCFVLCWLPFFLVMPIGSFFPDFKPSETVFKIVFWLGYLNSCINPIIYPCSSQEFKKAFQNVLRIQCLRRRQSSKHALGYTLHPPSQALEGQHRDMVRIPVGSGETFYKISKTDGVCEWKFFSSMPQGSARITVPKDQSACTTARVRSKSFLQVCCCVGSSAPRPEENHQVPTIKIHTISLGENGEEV
Method description: Radioligand binding, [3H] prazosin displacement, rat submaxillary membranes
Condition info: ratio of binding affinities, rat liver / rat submaxillary
Structures can show the parent of a compound that is named as a salt.
Measurement kind: α1B/α1A

- Molecule: "CC(C)Oc1ccccc1N1CCN(CCCN2C(=O)C3C(c4ccccc4)C=CC(c4ccccc4)C3C2=O)CC1 (stereo not shown) [Compound No. 77, hydrochloride]"
  Experimental target: "α1A adrenoceptor (Rattus norvegicus)"
  Relational operator: "="
  Meas value: 1.9
- Molecule: "CCOC(=O)CN(CCCN1C(=O)C2CC=CCC2C1=O)CCNc1ccccc1OC(C)C (stereo not shown)"
  Experimental target: "α1A adrenoceptor (Rattus norvegicus)"
  Relational operator: ">"
  Meas value: 43
- Molecule: "CC(C)Oc1ccccc1N1CCN(CC(O)CN2C(=O)C3CC4OC4CC3C2=O)CC1 (stereo not shown)"
  Experimental target: "α1A adrenoceptor (Rattus norvegicus)"
  Relational operator: "="
  Meas value: 231
- Molecule: "O=C1CCCC(=O)N1CCC[N+]1([O-])CCN(c2ccccc2O)CC1"
  Experimental target: "α1A adrenoceptor (Rattus norvegicus)"
  Relational operator: "="
  Meas value: 0.7
